Target: PI3Kα (Homo sapiens, UniProt P42336)
Construct: Full length p110 subunits of PI3K α, β and δ, N-terminally labeled with polyHis tag; polyHis (N); made in house; host or cells: Sf9 insect cells (baculovirus)
Sequence (P42336 whole entry): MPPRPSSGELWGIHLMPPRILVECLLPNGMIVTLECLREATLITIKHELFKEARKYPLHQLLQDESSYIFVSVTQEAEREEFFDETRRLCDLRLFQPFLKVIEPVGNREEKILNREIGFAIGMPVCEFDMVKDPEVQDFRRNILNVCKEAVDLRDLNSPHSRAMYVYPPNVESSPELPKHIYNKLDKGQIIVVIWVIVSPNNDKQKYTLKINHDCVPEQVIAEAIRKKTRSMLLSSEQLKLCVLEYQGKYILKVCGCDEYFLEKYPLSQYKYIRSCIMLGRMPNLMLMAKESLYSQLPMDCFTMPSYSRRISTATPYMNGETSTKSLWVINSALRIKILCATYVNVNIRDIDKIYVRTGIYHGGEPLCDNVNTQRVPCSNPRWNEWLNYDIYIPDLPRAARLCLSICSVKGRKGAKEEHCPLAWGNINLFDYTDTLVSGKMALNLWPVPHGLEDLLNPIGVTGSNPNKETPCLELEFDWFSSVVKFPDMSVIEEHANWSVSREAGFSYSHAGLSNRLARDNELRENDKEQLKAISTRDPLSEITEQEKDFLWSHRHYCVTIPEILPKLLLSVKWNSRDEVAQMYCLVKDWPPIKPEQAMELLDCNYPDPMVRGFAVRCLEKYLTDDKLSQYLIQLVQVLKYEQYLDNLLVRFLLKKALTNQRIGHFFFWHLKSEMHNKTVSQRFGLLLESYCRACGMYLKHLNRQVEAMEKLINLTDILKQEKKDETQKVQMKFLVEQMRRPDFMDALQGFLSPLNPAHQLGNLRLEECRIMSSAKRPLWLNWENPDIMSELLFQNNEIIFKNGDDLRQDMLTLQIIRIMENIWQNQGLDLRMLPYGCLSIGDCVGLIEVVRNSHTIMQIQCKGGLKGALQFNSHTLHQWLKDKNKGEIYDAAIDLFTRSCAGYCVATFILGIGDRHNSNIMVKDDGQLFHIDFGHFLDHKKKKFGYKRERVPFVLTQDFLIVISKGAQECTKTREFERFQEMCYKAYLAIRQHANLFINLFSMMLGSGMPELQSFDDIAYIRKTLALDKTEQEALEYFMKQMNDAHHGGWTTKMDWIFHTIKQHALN
Sequence (P27986 whole entry partner): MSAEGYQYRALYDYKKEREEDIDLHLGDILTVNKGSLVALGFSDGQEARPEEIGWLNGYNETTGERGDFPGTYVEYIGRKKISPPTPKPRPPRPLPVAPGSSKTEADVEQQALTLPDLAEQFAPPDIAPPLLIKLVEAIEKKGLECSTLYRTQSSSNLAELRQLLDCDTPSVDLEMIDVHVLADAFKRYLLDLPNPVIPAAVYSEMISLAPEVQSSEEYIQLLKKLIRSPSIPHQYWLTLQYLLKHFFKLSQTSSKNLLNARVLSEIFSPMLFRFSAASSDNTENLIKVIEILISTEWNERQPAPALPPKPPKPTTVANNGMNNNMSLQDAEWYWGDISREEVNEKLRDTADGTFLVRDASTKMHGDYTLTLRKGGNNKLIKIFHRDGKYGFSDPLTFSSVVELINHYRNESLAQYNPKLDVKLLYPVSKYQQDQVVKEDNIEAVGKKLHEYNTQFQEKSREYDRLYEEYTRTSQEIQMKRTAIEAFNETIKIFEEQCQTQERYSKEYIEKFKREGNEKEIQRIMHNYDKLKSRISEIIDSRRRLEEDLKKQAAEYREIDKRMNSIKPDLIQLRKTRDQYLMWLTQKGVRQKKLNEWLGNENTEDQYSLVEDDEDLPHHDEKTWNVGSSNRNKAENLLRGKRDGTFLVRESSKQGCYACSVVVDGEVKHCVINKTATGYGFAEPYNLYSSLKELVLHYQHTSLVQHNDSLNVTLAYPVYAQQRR
Assay: In vitro PI3K AlphaScreen assay
Format: biochemical
Conditions: average if run more than once
property.measured: Ki (µM)
Record the value in µM, omitting the unit from your answer.

Tell me its Ki given `CS(=O)(=O)Nc1cc(-c2ccc3nccc(NC4CCNCC4)c3c2)cnc1Cl` as the entry.
0.161

Tell me its Ki given `CC1(C)CN(c2ccnc3ccc(-c4cnc(Cl)c(NS(C)(=O)=O)c4)cc23)CCO1` as the entry.
0.0107

Tell me its Ki given `CS(=O)(=O)Nc1cc(-c2ccc3nccc(N4CCN(Cc5ccc6c(c5)OCO6)CC4)c3c2)cnc1Cl` as the entry.
0.0225

Tell me its Ki given `CCN(CCC#N)c1ccnc2ccc(-c3cnc(Cl)c(NS(C)(=O)=O)c3)cc12` as the entry.
0.0276

Tell me its Ki given `COc1ncc(-c2ccc3nccc(N4CCOCC4)c3c2)cc1NS(C)(=O)=O` as the entry.
0.0047

Tell me its Ki given `CS(=O)(=O)Nc1cc(-c2ccc3nccc(-c4ccnc(C(F)(F)F)c4)c3c2)cnc1Cl` as the entry.
0.003

Tell me its Ki given `CN(C)c1ccc(-c2ccnc3ccc(-c4cnc(Cl)c(NS(=O)(=O)c5ccc(F)cc5)c4)cc23)cc1` as the entry.
0.0013

Tell me its Ki given `CS(=O)(=O)Nc1cc(-c2ccc3nccc(-c4ccncc4)c3c2)cnc1Cl` as the entry.
0.0011

Tell me its Ki given `CS(=O)(=O)Nc1cc(-c2ccc3ncc(N4CCOCC4)nc3c2)cnc1Cl` as the entry.
0.0028

Tell me its Ki given COCC(C)Nc1ccnc2ccc(-c3cnc(Cl)c(NS(=O)(=O)c4ccc(F)cc4)c3)cc12 (centres unmarked) as the entry.
0.121

Tell me its Ki given `COc1ccc(-n2c(=O)cnc3ccc(-c4cnc(Cl)c(NS(=O)(=O)N(C)C)c4)cc32)cn1` as the entry.
0.0022

Tell me its Ki given `COc1cc(-c2ccnc3ccc(-c4cnc(Cl)c(NS(C)(=O)=O)c4)cc23)ccn1` as the entry.
0.0019

Tell me its Ki given `O=c1c2cccnc2ccn1-c1cnc(Cl)c(NS(=O)(=O)c2ccc(F)cc2)c1` as the entry.
0.548

Tell me its Ki given `CN(C)S(=O)(=O)Nc1cc(-c2ccc3nccc(N4CCOCC4)c3c2)cnc1Cl` as the entry.
0.0065

Tell me its Ki given `O=S(=O)(Nc1cc(-c2ccc3nccc(OCC4CCSCC4)c3c2)cnc1Cl)c1ccc(F)cc1` as the entry.
0.0012

Tell me its Ki given `C[C@@H]1CN(c2ccnc3ccc(-c4cnc(Cl)c(NS(=O)(=O)c5ccc(F)cc5)c4)cc23)C[C@H](C)O1` as the entry.
0.0068

Tell me its Ki given `CN(C)S(=O)(=O)Nc1cc(N2CCc3nccc(N4CCOCC4)c3C2)cnc1Cl` as the entry.
0.111

Tell me its Ki given `CS(=O)(=O)Nc1cc(-c2ccc3nccc(N4Cc5ccc(F)cc5C4)c3c2)cnc1Cl` as the entry.
0.016

Tell me its Ki given `Cc1cc(-c2ccnc3ccc(-c4cnc(Cl)c(NS(C)(=O)=O)c4)cc23)ccn1` as the entry.
0.0015

Tell me its Ki given `O=S(=O)(Nc1cc(-c2ccc3nccc(N4CCOCC4)c3c2)cnc1Cl)N1CCOCC1` as the entry.
0.0046

Tell me its Ki given COCC1CCCN1c1ccnc2ccc(-c3cnc(Cl)c(NS(C)(=O)=O)c3)cc12 (centres unmarked) as the entry.
0.368

Tell me its Ki given C[C@@H]1CN(c2ccnc3ccc(-c4cnc(Cl)c(NS(C)(=O)=O)c4)cc23)C[C@@H](C)O1 [Example 110] as the entry.
0.0063

Tell me its Ki given `C[C@H]1CN(c2ccnc3ccc(-c4cnc(Cl)c(NS(C)(=O)=O)c4)cc23)C[C@H](C)O1` as the entry.
0.0032

Tell me its Ki given `CS(=O)(=O)Nc1cc(-c2ccc3nccc(-c4cccnc4)c3c2)cnc1-c1cccnc1` as the entry.
0.0053

Tell me its Ki given O=S(=O)(Nc1cc(-c2ccc3nccc(OC4CCSC4)c3c2)cnc1Cl)c1ccc(F)cc1 (centres unmarked) as the entry.
0.0023

Tell me its Ki given `CS(=O)(=O)Nc1cc(-c2ccc3nccc(-c4ccc(C(F)(F)F)nc4)c3c2)cnc1Cl` as the entry.
0.0021

Tell me its Ki given `COCCN(C)S(=O)(=O)Nc1cc(-c2ccc3ncc(=O)n(-c4cccc(C(F)(F)F)c4)c3c2)cnc1Cl` as the entry.
0.0185

Tell me its Ki given `COc1ncc(-c2ccc3nccc(-c4ccncc4)c3c2)cc1NS(C)(=O)=O` as the entry.
0.0035

Tell me its Ki given `CS(=O)(=O)Nc1cc(-c2ccc3nccc(N4CCC(c5ccccc5)CC4)c3c2)cnc1Cl` as the entry.
0.0052

Tell me its Ki given `CS(=O)(=O)Nc1cc(-c2ccc3nccc(C4=CCOCC4)c3c2)cnc1Cl` as the entry.
0.0017

Tell me its Ki given C[C@@H]1CN(c2ccnc3ccc(-c4cnc(Cl)c(NS(C)(=O)=O)c4)cc23)C[C@@H](C)O1 (racemic) [Example 104] as the entry.
0.0083

Tell me its Ki given `COc1ccc(S(=O)(=O)Nc2cc(-c3ccc4c(c3)OCCO4)cnc2Cl)cc1` as the entry.
0.0273
